# experimental protocol: Fold selectivity against alpha 1A adrenergic receptor over alpha 2A, 2B and 2C adrenergic receptors

{"compound": "COC(=O)C1=C(C)NC(=O)N(C(=O)NCCCN2CCN(c3ccc(OC)cc3)CC2)C1c1ccc(F)c(F)c1 (stereo not drawn)", "Fold selectivity": "> 15"}
{"compound": "COC(=O)C1=C(C)NC(=O)N(C(=O)NCCCN2CCN(c3ccc(OC)cc3C)CC2)C1c1ccc(F)c(F)c1 (stereo not drawn)", "Fold selectivity": "> 20"}
{"compound": "COC(=O)C1=C(C)NC(=O)N(C(=O)NCCCN2CCN(c3ccccc3C#N)CC2)C1c1ccc(F)c(F)c1 (stereo not drawn)", "Fold selectivity": "> 1300"}
{"compound": "COC(=O)C1=C(C)NC(=O)N(C(=O)NCCCN2CCN(c3ccccc3C(N)=O)CC2)C1c1ccc(F)c(F)c1 (stereo not drawn)", "Fold selectivity": "> 3000"}
{"compound": "COC(=O)C1=C(C)NC(=O)N(C(=O)NCCCN2CCN(c3ccccc3O)CC2)C1c1ccc(F)c(F)c1 (stereo not drawn)", "Fold selectivity": "> 65"}
{"compound": "COC(=O)C1=C(C)NC(=O)N(C(=O)NCCCN2CCN(c3ccccc3[N+](=O)[O-])C[C@H]2C)C1c1ccc(F)c(F)c1 (stereo partly drawn)", "Fold selectivity": "> 1600"}
{"compound": "COC(=O)C1=C(C)NC(=O)N(C(=O)NCCCN2CCN(c3ccccc3OC)CC2)C1c1ccc(F)c(F)c1 (stereo not drawn)", "Fold selectivity": "> 360"}
{"compound": "COC(=O)C1=C(C)NC(=O)N(C(=O)NCCCN2CCN(c3cccc([N+](=O)[O-])c3)CC2)C1c1ccc(F)c(F)c1 (stereo not drawn)", "Fold selectivity": "> 40"}

###

# experimental protocol: Fold selectivity against alpha 1A adrenergic receptor over alpha 2A, 2B and 2C adrenergic receptors

{"compound": "COCC1=C(C(=O)OC)C(c2cc(F)c(F)cc2F)N(C(=O)NCCCN2CCN(c3ccccc3C(N)=O)CC2)C(=O)N1 (stereo not drawn)", "Fold selectivity": "> 660"}
{"compound": "COC(=O)C1=C(C)NC(=O)N(C(=O)NCCCN2CCN(c3cccc(Cl)c3)CC2)C1c1ccc(F)c(F)c1 (stereo not drawn)", "Fold selectivity": "> 195"}
{"compound": "CCC1=C(C(N)=O)C(c2ccc(F)cc2F)N(C(=O)NCCCN2CCN(c3ccccc3C(N)=O)CC2)C(=O)N1 (stereo not drawn)", "Fold selectivity": "> 600"}

###

Entries annotated with measured Fold selectivity
# experimental protocol: Fold selectivity against alpha 1A adrenergic receptor over alpha 2A, 2B and 2C adrenergic receptors

{"molecule": "COC(=O)C1=C(C)NC(=O)N(C(=O)NCCCN2CCN(c3cccc(C(F)(F)F)c3)CC2)C1c1ccc(F)c(F)c1 (stereo not drawn)", "Fold selectivity": "> 60"}
{"molecule": "COCC1=C(C(=O)OC)C(c2ccc(F)c(F)c2)N(C(=O)NCCCN2CCN(c3ccccc3C(N)=O)CC2)C(=O)N1 (stereo not drawn)", "Fold selectivity": "> 4500"}
{"molecule": "COC(=O)C1=C(C)NC(=O)N(C(=O)NCCCN2CCN(c3ccccc3[N+](=O)[O-])CC2)C1c1ccc(F)c(F)c1 (stereo not drawn)", "Fold selectivity": "> 23000"}
{"molecule": "COC(=O)C1=C(C)NC(=O)N(C(=O)NCCCN2CCN(c3ccccc3Cl)CC2)C1c1ccc(F)c(F)c1 (stereo not drawn)", "Fold selectivity": "> 190"}
{"molecule": "COC(=O)C1=C(C)NC(=O)N(C(=O)NCCCN2CCN(c3ccccc3C(=O)OC)CC2)C1c1ccc(F)c(F)c1 (stereo not drawn)", "Fold selectivity": "> 85"}
{"molecule": "COC(=O)C1=C(C)NC(=O)N(C(=O)NCCCN2CCN(c3ccccc3[N+](=O)[O-])C[C@@H]2C)C1c1ccc(F)c(F)c1 (stereo partly drawn)", "Fold selectivity": "> 17000"}
{"molecule": "CCOc1ccccc1N1CCN(CCCNC(=O)N2C(=O)NC(C)=C(C(=O)OC)C2c2ccc(F)c(F)c2)CC1 (stereo not drawn)", "Fold selectivity": "> 210"}
{"molecule": "CCC1=C(C(=O)OC)C(c2ccc(F)cc2F)N(C(=O)NCCCN2CCN(c3ccccc3C(N)=O)CC2)C(=O)N1 (stereo not drawn)", "Fold selectivity": "> 1900"}

All figures here come from ChEMBL document CHEMBL1132478.
